Tested on: K. pneumoniae expressing the Class A carbapenemase KPC-2
Test: microbe, parasite or virus in culture
Assay type: cell-based
Settings: in presence of Piperacillin 16 μg/ml (Examples 57-65)
Where a name gives a salt, the structure may show the parent alone.
Rule: MIC of example compound, K. pneumoniae KPC-2 below 0.5 µg/mL gives 1.0, anything at or above gives 0.0.

Hello, I'm reviewing records and need to know if MIC of example compound, K. pneumoniae KPC-2 of Cl.NCc1cc(CC(=O)N[C@@H](Cc2cccc(C(=O)O)c2O)B(O)O)ccn1 [Example 63] is below 0.5 µg/mL. Could you check?
1.0

Given the entry O=C(Cc1ccc(CNc2ccccn2)cc1)N[C@@H](Cc1cccc(C(=O)O)c1O)B(O)O [Example 57] , would its reported MIC of example compound, K. pneumoniae KPC-2 be below 0.5 µg/mL?
0.0

Strictly below 0.5 µg/mL in MIC of example compound, K. pneumoniae KPC-2? N=C(N)NCCC[C@H](NCc1ccc(CC(=O)N[C@@H](Cc2cccc(C(=O)O)c2O)B(O)O)cc1)C(=O)O [Example 59]
0.0

Dear reviewer, please state whether N=C(N)NCc1ccc(CC(=O)N[C@@H](Cc2cccc(C(=O)O)c2O)B(O)O)cc1 [Example 61, formate salt] has MIC of example compound, K. pneumoniae KPC-2 strictly beneath 0.5 µg/mL.
1.0

Confirm or reject: MIC of example compound, K. pneumoniae KPC-2 of N=C(N)c1ccc(CC(=O)N[C@@H](Cc2cccc(C(=O)O)c2O)B(O)O)cc1 [Example 62, formate salt] lies strictly below 0.5 µg/mL
1.0

Say whether its MIC of example compound, K. pneumoniae KPC-2 is strictly beneath 0.5 µg/mL. Entry: N=C(N)NCc1cc(CC(=O)N[C@@H](Cc2cccc(C(=O)O)c2O)B(O)O)ccn1 [Example 64, formate]
1.0

* * *

Molecular target: SHV-5 β-lactamase (Klebsiella pneumoniae, UniProt P0A3M1)
Construct: expressed as native untagged proteins; made in house; host or cells: E. coli BL21(DE3)
Sequence (P0A3M1 22-286): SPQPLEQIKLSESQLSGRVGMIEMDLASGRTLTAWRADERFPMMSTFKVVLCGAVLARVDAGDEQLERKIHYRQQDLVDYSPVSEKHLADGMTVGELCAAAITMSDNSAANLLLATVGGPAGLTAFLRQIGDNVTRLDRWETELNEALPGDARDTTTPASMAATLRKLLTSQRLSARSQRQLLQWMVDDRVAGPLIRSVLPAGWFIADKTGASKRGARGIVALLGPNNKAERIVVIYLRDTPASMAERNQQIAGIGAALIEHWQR
Assay: β-lactamase enzyme inhibition assay (nitrocefin substrate), SHV-5
Type: biochemical
Where a name gives a salt, the structure may show the parent alone.
Endpoint Name: IC50 (nM)
Form entry: value (nM) — number only.

# query: IC50 of entry CC(=O)N(CCN)Cc1cccc(C(=O)N[C@@H](Cc2cccc(C(=O)O)c2O)B(O)O)c1 [Example 24]
350

Name the reported IC50 value associated with the compound Cl.Nc1nc(/C(=N/O)C(=O)N[C@@H](Cc2cccc(C(=O)O)c2O)B(O)O)cs1 [Example 49, hydrochloride]
4

Which IC50 is reported for this compound? NCc1cccc(C(=O)N[C@@H](Cc2cccc(C(=O)O)c2O)B(O)O)c1 [Example 1, hydrochloride]
653

What value of IC50 has been recorded for this entry: Cl.Nc1cc(C(=O)N[C@@H](Cc2cccc(C(=O)O)c2O)B(O)O)ccn1 [Example 8]
29

# IC50 lookup, item Nc1cc(CC(=O)N[C@@H](Cc2cccc(C(=O)O)c2O)B(O)O)ccn1 [Example 45, formate]
10

Fill blank: measured IC50 of the compound Nc1cccc[n+]1Cc1ccc(CC(=O)N[C@@H](Cc2cccc(C(=O)O)c2O)B(O)O)cc1 [Example 40] is ____.
20

* * *

Target: SHV-5 β-lactamase (Klebsiella pneumoniae, UniProt P0A3M1)
Construct: expressed as native untagged proteins; made in house; host or cells: E. coli BL21(DE3)
Experiment: β-lactamase enzyme inhibition assay (nitrocefin substrate), SHV-5
Assay type: biochemical
Where a name gives a salt, the structure may show the parent alone.
What pIC50 was measured for each of the following?
// scale note: pIC50 = -log10(conc_M); give the bare number

# lookup: pIC50 of O=C(Cc1ccc(CNc2ccccn2)cc1)N[C@@H](Cc1cccc(C(=O)O)c1O)B(O)O
8.70

I would be grateful if you could share the reported pIC50 for Cl.NCc1cc(CC(=O)N[C@@H](Cc2cccc(C(=O)O)c2O)B(O)O)ccn1 [Example 63, hydrochloride] .
8.10

Endpoint output: pIC50 of NCc1ccc(/C(=N/O)C(=O)N[C@@H](Cc2cccc(C(=O)O)c2O)B(O)O)cc1 [Example 53, hydrochloride] . Value?
7.54

I am curious: what pIC50 value has been reported for NCc1cccc(CC(=O)N[C@@H](Cc2cccc(C(=O)O)c2O)B(O)O)c1 ?
8.30

# get_value(readout='pIC50', item= CN(C)Cc1ccc(C(=O)N[C@@H](Cc2cccc(C(=O)O)c2O)B(O)O)cc1 [Example 4, formate salt] )
9.22

If you can, please state the reported pIC50 value of NCCNCc1cccc(C(=O)N[C@@H](Cc2cccc(C(=O)O)c2O)B(O)O)c1 .
6.59

Need pIC50, item N=C(N)NCc1ccc(CC(=O)N[C@@H](Cc2cccc(C(=O)O)c2O)B(O)O)cc1 [Example 61, formate salt]
8.70

* * *

Target: OXA-23 β-lactamase (Acinetobacter baumannii)
Construct: crude β-lactamase extracts were prepared from 20 ml overnight cultures; endogenous in cells; host or cells: Acinetobacter baumannii cells containing OXA-23 (crude freeze-thaw extract)
Sequence (Q9L4P2 18-273): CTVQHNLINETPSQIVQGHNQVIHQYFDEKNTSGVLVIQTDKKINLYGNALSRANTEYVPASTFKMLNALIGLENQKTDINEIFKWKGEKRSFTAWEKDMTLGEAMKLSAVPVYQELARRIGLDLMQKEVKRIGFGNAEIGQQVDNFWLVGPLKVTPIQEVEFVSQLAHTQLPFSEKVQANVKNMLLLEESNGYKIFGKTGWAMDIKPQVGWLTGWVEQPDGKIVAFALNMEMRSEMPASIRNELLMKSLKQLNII
Assay: β-lactamase enzyme inhibition assay (nitrocefin substrate), OXA-23 crude extract
Type: biochemical
Conditions: nitrocefin 100 μM, 37° C., PBS pH 7.0; read-out: OXA-23 IC50
Counter-ions that a name gives are not always drawn.
Endpoint Name: IC50

# query: IC50 of entry CNCc1cccc(C(=O)N[C@@H](Cc2cccc(C(=O)O)c2O)B(O)O)c1
33 nM

Can you share its IC50? I mean this compound: O=C(O)CNCc1ccc(CC(=O)N[C@@H](Cc2cccc(C(=O)O)c2O)B(O)O)cc1
182 nM

IC50 for CC(=O)Nc1ccc(C(=O)N[C@@H](Cc2cccc(C(=O)O)c2O)B(O)O)cn1 ?
580 nM

Quick one: IC50 for O=C(N[C@@H](Cc1cccc(C(=O)O)c1O)B(O)O)c1ccc(CN2CCOCC2)cc1 ?
> 1000 nM

# IC50 lookup, item NCCNCc1ccc(CC(=O)N[C@@H](Cc2cccc(C(=O)O)c2O)B(O)O)cc1
97 nM

Looking for the measured IC50 of Cl.O=C(N[C@@H](Cc1cccc(C(=O)O)c1O)B(O)O)c1ccc(N2CCNCC2)nc1 [Example 9, hydrochloride] , can you help?
> 1000 nM

Return reported IC50; argument: CCNCc1ccc(C(=O)N[C@@H](Cc2cccc(C(=O)O)c2O)B(O)O)cc1.Cl [Example 6, Hydrochloride]
> 1000 nM

Would you kindly share the measured IC50 for Cl.Nc1cncc(C(=O)N[C@@H](Cc2cccc(C(=O)O)c2O)B(O)O)c1 [Example 44, hydrochloride] ?
120 nM

I am curious: what IC50 value has been reported for CNCc1ccc(CC(=O)N[C@@H](Cc2cccc(C(=O)O)c2O)B(O)O)cc1 ?
379 nM

Endpoint output: IC50 of N=C(N)NCc1cc(CC(=O)N[C@@H](Cc2cccc(C(=O)O)c2O)B(O)O)ccn1 [Example 64, formate] . Value?
177 nM

Given Cl.NCc1cc(CC(=O)N[C@@H](Cc2cccc(C(=O)O)c2O)B(O)O)ccn1 [Example 63, hydrochloride] , state its recorded IC50.
534 nM

Suppose we examine the compound O=C(Cc1ccc(CN2CCCC2)cc1)N[C@@H](Cc1cccc(C(=O)O)c1O)B(O)O ; what IC50 value has been reported?
234 nM

Reported IC50 for Cl.Nc1nc(/C(=N/O)C(=O)N[C@@H](Cc2cccc(C(=O)O)c2O)B(O)O)cs1 [Example 49, hydrochloride] : what is it?
17 nM

* * *

Biological target: p99 AmpC β-lactamase (Enterobacter cloacae)
Construct: expressed as native untagged proteins; made in house; host or cells: E. coli BL21(DE3)
Sequence (P05364 21-381): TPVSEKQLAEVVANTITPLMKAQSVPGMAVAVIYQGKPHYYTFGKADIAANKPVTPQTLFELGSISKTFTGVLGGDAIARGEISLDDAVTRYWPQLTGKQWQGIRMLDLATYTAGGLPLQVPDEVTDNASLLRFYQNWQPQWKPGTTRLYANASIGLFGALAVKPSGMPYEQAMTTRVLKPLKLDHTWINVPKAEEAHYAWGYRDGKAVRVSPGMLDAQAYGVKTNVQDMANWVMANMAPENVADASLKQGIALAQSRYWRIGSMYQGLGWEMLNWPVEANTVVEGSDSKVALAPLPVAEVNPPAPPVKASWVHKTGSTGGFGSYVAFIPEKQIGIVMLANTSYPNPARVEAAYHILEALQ
Experiment: β-lactamase enzyme inhibition assay (nitrocefin substrate), P99 AmpC
Type: biochemical
Details: nitrocefin 100 μM, 37° C., PBS pH 7.0; read-out: P99 AmpC IC50
Hi there, I'd appreciate the recorded pIC50 for every entry that follows.
Scale explanation: pIC50 corresponds to minus log10 of a concentration expressed in moles per litre.

Quick one: pIC50 of Cl.Nc1nc(/C(=N/O)C(=O)N[C@@H](Cc2cccc(C(=O)O)c2O)B(O)O)cs1 [Example 49, hydrochloride] ?
8.70

What value of pIC50 has been recorded for this entry: Nc1ccc(CC(=O)N[C@@H](Cc2cccc(C(=O)O)c2O)B(O)O)cn1 [Example 46]
8.40

# get_value(readout='pIC50', item= CC(=O)NCc1ccc(CC(=O)N[C@@H](Cc2cccc(C(=O)O)c2O)B(O)O)cc1 [Example 32] )
8.70

pIC50 for O=C(Cc1ccc(CNCCO)cc1)N[C@@H](Cc1cccc(C(=O)O)c1O)B(O)O [Example 34] ?
8.40

State the recorded pIC50 for this entry: CC(=O)N(CCN)Cc1cccc(C(=O)N[C@@H](Cc2cccc(C(=O)O)c2O)B(O)O)c1 [Example 24]
8.70

# input compound: CC(=O)Nc1ccc(C(=O)N[C@@H](Cc2cccc(C(=O)O)c2O)B(O)O)cn1 [Example 10] ; wanted: its pIC50
8.52

# pIC50 lookup, item O=C(N[C@@H](Cc1cccc(C(=O)O)c1O)B(O)O)c1cccc(CN2CCNCC2)c1 [Example 20]
9.52

Query: pIC50; subject: O=C(N[C@@H](Cc1cccc(C(=O)O)c1O)B(O)O)c1cccc(CN(CCO)CCO)c1 [Example 23]
9.05
